# target.of.assay: Glucagon receptor (Homo sapiens)
# Sequence (P47871 whole entry): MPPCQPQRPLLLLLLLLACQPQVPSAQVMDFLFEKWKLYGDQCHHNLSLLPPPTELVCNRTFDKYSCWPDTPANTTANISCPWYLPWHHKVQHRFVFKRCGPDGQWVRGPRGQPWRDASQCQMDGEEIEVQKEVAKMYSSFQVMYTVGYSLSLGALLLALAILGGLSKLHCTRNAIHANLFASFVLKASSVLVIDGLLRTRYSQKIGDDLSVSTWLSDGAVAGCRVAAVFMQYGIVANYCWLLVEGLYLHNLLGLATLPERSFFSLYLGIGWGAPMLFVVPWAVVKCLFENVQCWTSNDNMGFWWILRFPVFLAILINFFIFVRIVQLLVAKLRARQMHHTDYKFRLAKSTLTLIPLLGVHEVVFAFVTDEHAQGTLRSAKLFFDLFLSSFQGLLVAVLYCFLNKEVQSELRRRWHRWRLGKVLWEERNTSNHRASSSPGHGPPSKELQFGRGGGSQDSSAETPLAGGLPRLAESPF
# procedure.details: Agonist activity at human GCGR expressed in HEK293 cells assessed as cAMP level measured after 60 mins by HTRF based assay
# Type: functional, cell-based
Attribute: EC50
Return type: number; implicit unit nM.

                                  substance  endpoint  units_of_measure  measured_result
0  H-HSQGTFTSDMSKYLDSRRAQDFVDWLIKGRPSSGAPPPS-NH2      EC50                nM             0.91
1  H-HSQGTFTSDMSSYLDSRRAQDFVDWLIKGRPSSGAPPPS-NH2      EC50                nM              1.8

Return EC50 for the following substance: "H-HSQGTFTSDMSKYLDSRRAQDFVDWLIKGR-NH2" 1.8

---

# target.of.assay: Glucagon-like peptide 1 receptor (Homo sapiens, UniProt P43220)
# Sequence (P43220 whole entry): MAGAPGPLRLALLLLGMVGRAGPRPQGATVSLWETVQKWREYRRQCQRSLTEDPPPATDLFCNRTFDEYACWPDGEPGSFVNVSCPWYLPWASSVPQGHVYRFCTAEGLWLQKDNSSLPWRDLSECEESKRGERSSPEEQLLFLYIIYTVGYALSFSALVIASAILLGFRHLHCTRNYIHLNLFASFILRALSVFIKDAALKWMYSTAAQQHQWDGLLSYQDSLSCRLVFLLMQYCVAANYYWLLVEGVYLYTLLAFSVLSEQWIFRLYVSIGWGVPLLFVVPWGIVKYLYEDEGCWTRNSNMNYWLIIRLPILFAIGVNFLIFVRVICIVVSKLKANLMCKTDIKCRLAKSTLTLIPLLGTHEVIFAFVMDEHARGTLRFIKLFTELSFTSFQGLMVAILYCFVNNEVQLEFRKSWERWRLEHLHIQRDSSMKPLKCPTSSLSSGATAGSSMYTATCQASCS
# procedure.details: Agonist activity at human GLP-1 receptor expressed in HEK293 cells assessed as cAMP level measured after 60 mins by HTRF based assay
# Type: functional, cell-based
Known pEC50 of a selection of substances
Entry type: numeric. Quantity: pEC50, the -log10 of concentration in molar units.

Input "H-HSQGTFTSDMSKYLDSRRAQDFVDWLIKGRNRNNIA-NH2" , output reported pEC50. 10.04

Answer with the recorded pEC50 for the substance listed here: "H-HADGTFTSDMSAYLEEKAAKEFVDWLIKGRPK-NH2" 9.92

---

The substances listed here are annotated with their pEC50.
# target.of.assay: Glucagon-like peptide 1 receptor (Homo sapiens)
# procedure.details: Agonist activity at human GLP-1 receptor expressed in HEK293 cells assessed as cAMP level measured after 60 mins by HTRF based assay
# Assay type: functional, cell-based
By convention, pEC50 is the negative base-10 log of a molar concentration.

>>> print(df.to_string())
                                substance  endpoint  measured_result
0  H-HADGTFTSDMSSYLEEKAAKEFVDALIKGRPK-NH2     pEC50            10.04
1  H-HADGTFTSDMSSYLEEKAAKEAVDWLIKGRPK-NH2     pEC50             9.18

Now turn to the next substance.
Note pEC50 for the substance shown: "H-HSQGTFTSDMSKYLDSRRAQDFVDWLIKGRPSSGAPPPS-NH2" 9.89
